Reference source: paper PMC9143228

Assay: Water solubility (boron in supernatant by ICP-MS)
Format: physicochemical
Settings: in water, 25°C, n = 3, Table S8; read-out: Solubility (g/L) (in water, 25°C, n = 3)
EXPERIMENTAL ENDPOINT: solubility (g/L)
Numbers only, in g/L.

Ask: // query solubility value for entry N[C@@H](Cc1ccccc1)C(=O)O
Reply: 15.3

====

Consider the following molecules; for each one, report its logP.
Assay: Log p measurement (water/1-octanol, ICP-MS)
Assay type: physicochemical
Details: v/v); water:1-octanol 1:1, n = 12
Give bare numbers.

[
  {
    "SMILES DATA": "N[C@@H](Cc1ccc(B(O)O)cc1)C(=O)O",
    "logP": -1.8
  }
]

Please look at the following molecule next.
Ask: // query logP value for entry N[C@@H](Cc1cccc(B(O)O)c1)C(=O)O
Reply: -1.59

====

Assay: Water solubility (boron in supernatant by ICP-MS)
Assay type: physicochemical
Conditions: in water, 25 °C, 24 h stirring, n = 6
EXPERIMENTAL ENDPOINT: solubility at 24 h
Write the quantity with the unit trailing the number.

[
  {
    "MOLECULE": "N[C@@H](Cc1ccc(B(O)O)cc1)C(=O)O [4-BPA, 4-borono-L-phenylalanine]",
    "solubility at 24 h": "0.72 mg/mL"
  }
]

Please look at the following molecule next.
Ask: // query solubility at 24 h value for entry N[C@@H](Cc1cccc(B(O)O)c1)C(=O)O [3-BPA, 3-borono-L-phenylalanine]
Reply: 125 mg/mL
